System: Staphylococcus aureus
Measurement protocol: Bactericidal activity against Staphylococcus aureus MLS-16 MTCC 2940 after 24 hrs by agar plating method
Format: functional
Condition set: MLS-16 MTCC 2940, 24 h
# MBC values compiled below
Answer with a number only, understood to be in µg/mL.

Use the examples below as a reference point.
Molecule: Nc1nc(OCc2cn(-c3n[nH]c4nc(C(F)(F)F)ccc34)nn2)cc(C(F)(F)F)n1
Output unit: µg/mL
MBC: 31.2

Molecule: O=C(O)c1cn(C2CC2)c2cc(N3CCNCC3)c(F)cc2c1=O [CIPROFLOXACIN]
Output unit: µg/mL
MBC: 1.17

Molecule: CCCCCCCCCCn1nc(-n2cc(COc3cc(C(F)(F)F)nc(N)n3)nn2)c2ccc(C(F)(F)F)nc21
Output unit: µg/mL
MBC: 7.8

Note: attention shifts to another entry.
// field: MBC; key: "CCOC(=O)Cn1nc(-n2cc(COc3cc(C(F)(F)F)nc(N)n3)nn2)c2ccc(C(F)(F)F)nc21" ; value = 15.6

----------
The entries below are paired with their reported IC50.
Tested on: Micrococcus luteus
Measurement protocol: Antimicrobial activity against Micrococcus luteus MTCC 2470 assessed as inhibition of biofilm formation after 24 hrs by crystal violet staining-based assay
Type: functional, organism-based
Condition set: MTCC 2470, 24 h
# output: bare number, implied unit mg/L

IC50 reported for this molecule "Nc1nc(OCc2cn(-c3n[nH]c4nc(C(F)(F)F)ccc34)nn2)cc(C(F)(F)F)n1" : 7.8

The molecule listed as "CCOC(=O)Cn1nc(-n2cc(COc3cc(C(F)(F)F)nc(N)n3)nn2)c2ccc(C(F)(F)F)nc21" has a reported IC50 of 7.8

The recorded IC50 for CC[C@H]1OC(=O)[C@H](C)[C@@H](O[C@H]2C[C@@](C)(OC)[C@@H](O)[C@H](C)O2)[C@H](C)[C@@H](O[C@@H]2O[C@H](C)C[C@H](N(C)C)[C@H]2O)[C@](C)(O)C[C@@H](C)C(=O)[C@H](C)[C@@H](O)[C@]1(C)O [ERYTHROMYCIN] is 0.24

The molecule listed as "CCCCCCCCCCn1nc(-n2cc(COc3cc(C(F)(F)F)nc(N)n3)nn2)c2ccc(C(F)(F)F)nc21" shows IC50 equal to 3.9

----------
Tested on: Candida albicans
Condition set: MTCC 3017
Description: Antimicrobial activity against Candida albicans MTCC 3017 after 24 hrs by well diffusion method
Calls of active or inactive are those of the source. The calls are words filed in the database; no cut-off is given here.
Measured parameter: MIC

Below, 4 compounds whose answers are already recorded.
Smiles notation: Nc1nc(OCc2cn(-c3nn(CCC(F)(F)C(F)(F)C(F)(F)C(F)(F)C(F)(F)C(F)(F)C(F)(F)C(F)(F)F)c4nc(C(F)(F)F)ccc34)nn2)cc(C(F)(F)F)n1
Observed result: inactive
--
Smiles notation: C=CCn1nc(-n2cc(COc3cc(C(F)(F)F)nc(N)n3)nn2)c2ccc(C(F)(F)F)nc21
Observed result: inactive
--
Smiles notation: C#CCn1nc(-n2cc(COc3cc(C(F)(F)F)nc(N)n3)nn2)c2ccc(C(F)(F)F)nc21
Observed result: inactive
--
Smiles notation: CCCCCCCCCCn1nc(-n2cc(COc3cc(C(F)(F)F)nc(N)n3)nn2)c2ccc(C(F)(F)F)nc21
Observed result: inactive

Now for another entry.
// recorded MIC for "O=C(O)c1cn(C2CC2)c2cc(N3CCNCC3)c(F)cc2c1=O" : inactive

Just for reference, ChEMBL document CHEMBL3286384 is where these values come from.
